Values were extracted from ChEMBL document CHEMBL1143280.

assay: Clearance in Beagle dog at 7.2 mg/kg, po; format: ADME, organism-based, Canis lupus familiaris; parameters: dose 7.2 mg/kg, route oral; details: in vivo
PROPERTY_NAME: CL/F (mL/min/kg)
Enter your answer as a number in mL/min/kg; do not include the unit.

Q: Which CL/F reading was recorded for the compound CCc1cc(Nc2nccc(-c3c(-c4ccc(OC)c(C(=O)Nc5c(F)cccc5F)c4)nc4ccccn34)n2)c(OC)cc1N1CCC(N2CCN(S(C)(=O)=O)CC2)CC1 ?
A: 8.7

* * *

system: Mus musculus; assay: Dose normalized AUC (0 to 6 hrs) in po dosed mouse; assay type: ADME, organism-based; design: time < 6 hr, route oral; settings: in vivo
Reported AUC values are given for each entry in this list.
The figure you give is taken to be in ng·h/mL; do not add the unit.

[
  {
    "SMILES_RECORD": "COc1cc(N2CCC(N3CC[C@@H](F)C3)CC2)ccc1Nc1nccc(-c2c(-c3cccc(C(=O)Nc4c(F)cccc4F)c3)nc3ccccn23)n1",
    "EXPERIMENTAL_SYSTEM": "Mus musculus",
    "REPORTED_RESULT": 494
  }
]

Q: Record request: AUC value, item COc1cc(N2CCC(N3CCN(S(C)(=O)=O)CC3)CC2)ccc1Nc1nccc(-c2c(-c3cccc(C(=O)Nc4c(F)cccc4F)c3)nc3ccccn23)n1
A: 1060

Q: Likewise for COc1cc(N2CCC(N3CCN(C)CC3)CC2)ccc1Nc1nccc(-c2c(-c3cccc(C(=O)Nc4c(F)cccc4F)c3)nc3ccccn23)n1 ?
A: 203

* * *

target: Serine/threonine-protein kinase B-raf (Homo sapiens, UniProt P15056, V600E); assay: Inhibition of B-raf V600E mutant
Sequence (P15056 2-766 V600E limits assumed): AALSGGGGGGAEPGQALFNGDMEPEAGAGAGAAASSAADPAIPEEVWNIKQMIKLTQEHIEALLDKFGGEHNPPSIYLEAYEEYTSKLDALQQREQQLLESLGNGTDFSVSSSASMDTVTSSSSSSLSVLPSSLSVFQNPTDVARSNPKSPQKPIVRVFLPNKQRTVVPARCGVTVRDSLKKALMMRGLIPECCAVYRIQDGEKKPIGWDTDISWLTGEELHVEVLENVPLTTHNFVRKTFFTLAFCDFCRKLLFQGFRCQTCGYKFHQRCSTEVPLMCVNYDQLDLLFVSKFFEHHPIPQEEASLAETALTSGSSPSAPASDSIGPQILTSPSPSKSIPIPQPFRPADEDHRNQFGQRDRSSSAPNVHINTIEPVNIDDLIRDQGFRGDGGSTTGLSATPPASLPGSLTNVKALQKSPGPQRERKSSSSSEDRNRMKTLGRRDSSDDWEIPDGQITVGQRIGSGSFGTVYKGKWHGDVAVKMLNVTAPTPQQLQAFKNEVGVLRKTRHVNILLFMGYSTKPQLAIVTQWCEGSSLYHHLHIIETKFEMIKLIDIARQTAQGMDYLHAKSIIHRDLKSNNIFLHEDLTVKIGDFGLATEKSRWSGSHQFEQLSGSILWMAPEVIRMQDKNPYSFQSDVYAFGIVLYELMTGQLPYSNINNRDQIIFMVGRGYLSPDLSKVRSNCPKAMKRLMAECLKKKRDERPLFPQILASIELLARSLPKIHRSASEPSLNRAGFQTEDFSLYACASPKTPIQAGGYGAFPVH
PROPERTY_NAME: IC50

Field: example entries. Status: answers known.
[
  {
    "SMILES_RECORD": "CCc1cc(Nc2nccc(-c3c(-c4cccc(C(=O)Nc5c(F)cccc5F)c4)nc4ccccn34)n2)c(OC)cc1N1CCC(N2CCN(S(C)(=O)=O)CC2)CC1",
    "REPORTED_RESULT": "320 nM"
  },
  {
    "SMILES_RECORD": "COc1cc(N2CCC(N3CCN(S(C)(=O)=O)CC3)CC2)ccc1Nc1nccc(-c2c(-c3cccc(C(=O)Nc4c(F)cccc4F)c3)nc3ccccn23)n1",
    "REPORTED_RESULT": "80 nM"
  }
]

Next molecule, IC50 to be filled in.
Q: Look up IC50: CCc1cc(Nc2nccc(-c3c(-c4ccc(OC)c(C(=O)Nc5c(F)cccc5F)c4)nc4ccccn34)n2)c(OC)cc1N1CCC(N2CCN(S(C)(=O)=O)CC2)CC1
A: > 2000 nM

* * *

biological target: Mitogen-activated protein kinase 14 (Homo sapiens, UniProt Q16539); test: Inhibition of p38alpha
Sequence (Q16539 whole entry): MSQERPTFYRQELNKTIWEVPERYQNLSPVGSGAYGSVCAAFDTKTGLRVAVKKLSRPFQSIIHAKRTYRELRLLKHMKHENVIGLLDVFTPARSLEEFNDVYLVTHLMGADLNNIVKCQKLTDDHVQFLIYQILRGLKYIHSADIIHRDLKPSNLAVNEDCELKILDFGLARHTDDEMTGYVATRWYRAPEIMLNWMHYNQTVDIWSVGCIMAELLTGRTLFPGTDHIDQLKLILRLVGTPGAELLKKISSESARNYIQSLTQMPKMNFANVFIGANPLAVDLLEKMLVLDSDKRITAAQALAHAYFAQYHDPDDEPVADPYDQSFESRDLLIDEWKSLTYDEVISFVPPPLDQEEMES
PROPERTY_NAME: IC50
Express your answer as a number followed by its unit.

[
  {
    "SMILES_RECORD": "COc1cc(N2CCC(N3CCN(S(C)(=O)=O)CC3)CC2)ccc1Nc1nccc(-c2c(-c3cccc(C(=O)Nc4c(F)cccc4F)c3)nc3ccccn23)n1",
    "REPORTED_RESULT": "440 nM"
  }
]

Q: # lookup: IC50 of CCc1cc(Nc2nccc(-c3c(-c4cccc(C(=O)Nc5c(F)cccc5F)c4)nc4ccccn34)n2)c(OC)cc1N1CCC(N2CCN(S(C)(=O)=O)CC2)CC1
A: 1800 nM

Q: What about CCc1cc(Nc2nccc(-c3c(-c4ccc(OC)c(C(=O)Nc5c(F)cccc5F)c4)nc4ccccn34)n2)c(OC)cc1N1CCC(N2CCN(S(C)(=O)=O)CC2)CC1 ?
A: 11000 nM

* * *

# pIC50 listing for each entry below
target: Receptor tyrosine-protein kinase erbB-2 (Homo sapiens, UniProt P04626)
Sequence (P04626 whole entry): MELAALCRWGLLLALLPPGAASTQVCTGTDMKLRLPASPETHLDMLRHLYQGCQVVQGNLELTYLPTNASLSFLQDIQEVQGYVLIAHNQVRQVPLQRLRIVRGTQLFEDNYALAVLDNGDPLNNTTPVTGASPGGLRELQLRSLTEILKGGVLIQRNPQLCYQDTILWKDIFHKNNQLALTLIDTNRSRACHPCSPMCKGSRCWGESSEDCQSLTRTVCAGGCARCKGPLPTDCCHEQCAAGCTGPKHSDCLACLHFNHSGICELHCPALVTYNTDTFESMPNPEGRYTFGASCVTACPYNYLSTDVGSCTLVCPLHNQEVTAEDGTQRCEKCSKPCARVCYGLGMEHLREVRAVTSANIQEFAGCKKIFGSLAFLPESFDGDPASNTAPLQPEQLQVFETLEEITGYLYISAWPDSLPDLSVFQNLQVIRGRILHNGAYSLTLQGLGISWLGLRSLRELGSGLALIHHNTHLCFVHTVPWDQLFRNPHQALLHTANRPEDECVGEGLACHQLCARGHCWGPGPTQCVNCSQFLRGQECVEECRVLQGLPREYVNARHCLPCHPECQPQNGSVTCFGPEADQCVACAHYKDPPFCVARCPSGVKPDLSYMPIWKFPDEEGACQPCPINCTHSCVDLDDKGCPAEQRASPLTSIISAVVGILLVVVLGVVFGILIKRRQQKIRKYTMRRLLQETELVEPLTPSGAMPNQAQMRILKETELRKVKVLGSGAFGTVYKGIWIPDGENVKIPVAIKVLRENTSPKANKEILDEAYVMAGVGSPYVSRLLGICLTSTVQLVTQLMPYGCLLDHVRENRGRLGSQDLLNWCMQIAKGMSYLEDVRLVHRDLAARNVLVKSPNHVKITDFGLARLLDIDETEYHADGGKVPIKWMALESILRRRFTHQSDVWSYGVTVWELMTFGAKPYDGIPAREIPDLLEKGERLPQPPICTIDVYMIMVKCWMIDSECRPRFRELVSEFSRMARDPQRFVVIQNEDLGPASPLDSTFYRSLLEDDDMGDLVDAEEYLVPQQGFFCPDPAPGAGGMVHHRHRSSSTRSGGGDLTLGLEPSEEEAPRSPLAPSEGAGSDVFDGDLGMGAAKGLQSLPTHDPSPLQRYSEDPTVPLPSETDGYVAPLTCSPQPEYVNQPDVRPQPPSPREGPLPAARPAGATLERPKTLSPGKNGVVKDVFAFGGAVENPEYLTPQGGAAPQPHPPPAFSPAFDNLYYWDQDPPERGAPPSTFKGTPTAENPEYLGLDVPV
Conceptually, pIC50 converts a concentration in mol/L into minus its log10.

[
  {
    "SMILES_RECORD": "COc1cc(N2CCC(N3CCN(S(C)(=O)=O)CC3)CC2)ccc1Nc1nccc(-c2c(-c3cccc(C(=O)Nc4c(F)cccc4F)c3)nc3ccccn23)n1",
    "pIC50": 7.14
  }
]

Shifting focus to the molecule that follows.
Q: Form field: reported pIC50 of CCc1cc(Nc2nccc(-c3c(-c4cccc(C(=O)Nc5c(F)cccc5F)c4)nc4ccccn34)n2)c(OC)cc1N1CCC(N2CCN(S(C)(=O)=O)CC2)CC1
A: 7.27

* * *

The molecules below have reported pIC50 for UniProt:P00533.
Sequence (P00533 whole entry): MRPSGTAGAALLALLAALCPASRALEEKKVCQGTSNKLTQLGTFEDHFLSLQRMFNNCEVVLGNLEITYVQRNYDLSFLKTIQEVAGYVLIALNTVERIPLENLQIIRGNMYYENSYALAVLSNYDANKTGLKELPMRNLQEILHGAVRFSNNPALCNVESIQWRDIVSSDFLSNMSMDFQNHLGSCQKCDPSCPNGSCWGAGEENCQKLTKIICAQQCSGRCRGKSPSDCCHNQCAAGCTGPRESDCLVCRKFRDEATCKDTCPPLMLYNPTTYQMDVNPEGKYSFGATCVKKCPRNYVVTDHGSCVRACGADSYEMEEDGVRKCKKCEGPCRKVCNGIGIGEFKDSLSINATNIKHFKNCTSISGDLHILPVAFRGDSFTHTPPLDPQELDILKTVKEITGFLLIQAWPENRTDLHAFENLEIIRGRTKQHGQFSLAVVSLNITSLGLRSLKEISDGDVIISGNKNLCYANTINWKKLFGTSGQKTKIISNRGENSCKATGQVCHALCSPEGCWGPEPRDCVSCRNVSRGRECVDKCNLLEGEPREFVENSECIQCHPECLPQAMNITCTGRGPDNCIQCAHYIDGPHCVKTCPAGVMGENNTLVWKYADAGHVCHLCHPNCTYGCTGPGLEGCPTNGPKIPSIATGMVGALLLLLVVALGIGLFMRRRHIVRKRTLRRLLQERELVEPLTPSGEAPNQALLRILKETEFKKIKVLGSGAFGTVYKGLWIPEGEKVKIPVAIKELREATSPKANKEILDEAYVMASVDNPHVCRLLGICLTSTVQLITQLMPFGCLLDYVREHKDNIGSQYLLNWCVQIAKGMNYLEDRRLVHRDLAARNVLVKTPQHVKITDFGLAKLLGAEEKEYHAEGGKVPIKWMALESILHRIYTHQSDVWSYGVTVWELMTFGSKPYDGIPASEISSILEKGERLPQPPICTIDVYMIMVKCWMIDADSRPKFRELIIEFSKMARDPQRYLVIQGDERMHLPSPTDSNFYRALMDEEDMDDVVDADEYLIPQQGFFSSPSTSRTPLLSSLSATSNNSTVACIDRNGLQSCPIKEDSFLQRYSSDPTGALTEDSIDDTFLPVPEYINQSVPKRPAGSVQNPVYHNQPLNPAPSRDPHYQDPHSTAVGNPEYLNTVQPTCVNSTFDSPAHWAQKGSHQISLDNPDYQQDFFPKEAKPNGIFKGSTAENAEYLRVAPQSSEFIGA
For clarity, pIC50 is expressed as the negative log10 of concentration in mol/L.

[
  {
    "SMILES_RECORD": "CCc1cc(Nc2nccc(-c3c(-c4cccc(C(=O)Nc5c(F)cccc5F)c4)nc4ccccn34)n2)c(OC)cc1N1CCC(N2CCN(S(C)(=O)=O)CC2)CC1",
    "pIC50": 7.66
  }
]

Q: Quick check: pIC50 of COc1cc(N2CCC(N3CCN(S(C)(=O)=O)CC3)CC2)ccc1Nc1nccc(-c2c(-c3cccc(C(=O)Nc4c(F)cccc4F)c3)nc3ccccn23)n1 ?
A: 7.24

* * *

molecular target: Insulin-like growth factor 1 receptor (Homo sapiens, UniProt P08069); test: Inhibition of GST-tagged IGF1R (957-1367) expressed in baculovirus by time-resolved fluorescence assay
Sequence (P08069 31-736 limits assumed): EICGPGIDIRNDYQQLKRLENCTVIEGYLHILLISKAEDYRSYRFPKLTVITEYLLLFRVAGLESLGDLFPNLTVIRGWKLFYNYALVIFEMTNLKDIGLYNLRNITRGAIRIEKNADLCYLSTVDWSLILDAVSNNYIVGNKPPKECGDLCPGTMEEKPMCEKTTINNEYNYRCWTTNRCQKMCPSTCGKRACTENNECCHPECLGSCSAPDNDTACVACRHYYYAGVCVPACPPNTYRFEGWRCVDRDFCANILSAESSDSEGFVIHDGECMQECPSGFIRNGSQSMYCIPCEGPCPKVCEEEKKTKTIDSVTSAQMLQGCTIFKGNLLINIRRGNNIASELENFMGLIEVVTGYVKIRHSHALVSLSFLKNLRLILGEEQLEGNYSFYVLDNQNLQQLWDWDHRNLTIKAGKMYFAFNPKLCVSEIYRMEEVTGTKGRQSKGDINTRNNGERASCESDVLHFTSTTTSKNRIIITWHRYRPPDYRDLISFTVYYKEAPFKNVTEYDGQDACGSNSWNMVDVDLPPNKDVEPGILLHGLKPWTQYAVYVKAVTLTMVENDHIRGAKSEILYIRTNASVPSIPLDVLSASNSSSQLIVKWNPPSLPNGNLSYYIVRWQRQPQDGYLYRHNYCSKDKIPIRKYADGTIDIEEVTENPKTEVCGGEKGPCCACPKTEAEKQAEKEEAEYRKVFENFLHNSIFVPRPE
Sequence (P08069 741-1367 limits assumed): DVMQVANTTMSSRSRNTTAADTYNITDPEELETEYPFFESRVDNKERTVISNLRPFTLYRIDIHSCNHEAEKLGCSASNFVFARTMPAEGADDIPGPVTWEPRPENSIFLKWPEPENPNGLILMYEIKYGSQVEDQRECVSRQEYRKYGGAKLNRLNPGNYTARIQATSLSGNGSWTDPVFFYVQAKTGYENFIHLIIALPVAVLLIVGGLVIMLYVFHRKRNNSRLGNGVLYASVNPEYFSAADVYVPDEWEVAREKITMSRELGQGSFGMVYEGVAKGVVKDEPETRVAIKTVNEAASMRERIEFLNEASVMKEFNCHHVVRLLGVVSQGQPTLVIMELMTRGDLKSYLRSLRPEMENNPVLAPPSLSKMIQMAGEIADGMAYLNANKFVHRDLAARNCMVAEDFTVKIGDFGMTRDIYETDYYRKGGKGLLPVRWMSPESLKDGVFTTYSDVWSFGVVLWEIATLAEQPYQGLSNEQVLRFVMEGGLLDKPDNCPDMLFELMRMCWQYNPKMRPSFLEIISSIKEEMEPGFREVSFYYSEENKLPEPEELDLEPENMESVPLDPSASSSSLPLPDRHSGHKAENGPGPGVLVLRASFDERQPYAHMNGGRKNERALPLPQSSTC
Entries and their IC50
Answer with a number only, understood to be in nM.

See these solved cases before continuing.
[
  {
    "SMILES_RECORD": "CCc1cc(Nc2nccc(-c3c(-c4cccc(C(=O)Nc5c(F)cccc5F)c4)nc4ccccn34)n2)c(OC)cc1N1CCC(N2CCN(S(C)(=O)=O)CC2)CC1",
    "UNITS_SYMBOL": "nM",
    "IC50": 7
  },
  {
    "SMILES_RECORD": "COc1cc(N2CCC(N3CCN(C)CC3)CC2)ccc1Nc1nccc(-c2c(-c3cccc(C(=O)Nc4c(F)cccc4F)c3)nc3ccccn23)n1",
    "UNITS_SYMBOL": "nM",
    "IC50": 2
  },
  {
    "SMILES_RECORD": "COc1cc(N2CCC(N3CCCC3)CC2)ccc1Nc1nccc(-c2c(-c3cccc(C(=O)Nc4c(F)cccc4F)c3)nc3ccccn23)n1",
    "UNITS_SYMBOL": "nM",
    "IC50": 2
  },
  {
    "SMILES_RECORD": "COc1cc(N2CCC(N3CCCCC3)CC2)ccc1Nc1nccc(-c2c(-c3cccc(C(=O)Nc4c(F)cccc4F)c3)nc3ccccn23)n1",
    "UNITS_SYMBOL": "nM",
    "IC50": 2
  },
  {
    "SMILES_RECORD": "COc1cc(N2CCC(N3CCOCC3)CC2)ccc1Nc1nccc(-c2c(-c3cccc(C(=O)Nc4c(F)cccc4F)c3)nc3ccccn23)n1",
    "UNITS_SYMBOL": "nM",
    "IC50": 2
  }
]

Q: Any idea what its IC50 is? The compound is O=C(Nc1c(F)cccc1F)c1cccc(-c2nc3ccccn3c2-c2ccnc(Nc3ccc(N4CCC(N5CCCCC5)CC4)cc3)n2)c1
A: 2

Q: Param item: COc1cc(N2CCC(N3CCN(C(C)=O)CC3)CC2)ccc1Nc1nccc(-c2c(-c3cccc(C(=O)Nc4c(F)cccc4F)c3)nc3ccccn23)n1
A: 3

Q: What about COc1cc(N2CCC(N3CC[C@@H](F)C3)CC2)ccc1Nc1nccc(-c2c(-c3cccc(C(=O)Nc4c(F)cccc4F)c3)nc3ccccn23)n1 ?
A: 2

Q: // next record COc1cc(N2CCC(N3C[C@@H](C)O[C@@H](C)C3)CC2)ccc1Nc1nccc(-c2c(-c3cccc(C(=O)Nc4c(F)cccc4F)c3)nc3ccccn23)n1
A: 4

Q: Also COc1cc(N2CCC(N3CCN(S(C)(=O)=O)CC3)CC2)ccc1Nc1nccc(-c2c(-c3cccc(C(=O)Nc4c(F)cccc4F)c3)nc3ccccn23)n1 ?
A: 5

Q: Repeat for the following compound: CCc1cc(Nc2nccc(-c3c(-c4ccc(OC)c(C(=O)Nc5c(F)cccc5F)c4)nc4ccccn34)n2)c(OC)cc1N1CCC(N2CCN(S(C)(=O)=O)CC2)CC1
A: 27

Q: // query: CN(C)CCOc1cccc(Nc2nccc(-c3c(-c4cccc(C(=O)Nc5c(F)cccc5F)c4)nc4ccccn34)n2)c1
A: 1

* * *

tested on: A549; assay: Antiproliferative activity against human A549 cells after 72 hrs by Celltiter assay; type: functional, cell-based; settings: A549, 72 h
PROPERTY_NAME: IC50

Q: Item under review: CCc1cc(Nc2nccc(-c3c(-c4ccc(OC)c(C(=O)Nc5c(F)cccc5F)c4)nc4ccccn34)n2)c(OC)cc1N1CCC(N2CCN(S(C)(=O)=O)CC2)CC1 . Reported IC50?
A: > 20 µM

* * *

assay: Clearance in Sprague-Dawley rat at 3 mg/kg, po; type: ADME, organism-based; set-up: dose 3 mg/kg, route oral; conditions: in vivo
PROPERTY_NAME: CL/F (mL/min/kg)
Could you give me the number in mL/min/kg? Just the number is fine.

Q: Give the measured CL/F of CCc1cc(Nc2nccc(-c3c(-c4ccc(OC)c(C(=O)Nc5c(F)cccc5F)c4)nc4ccccn34)n2)c(OC)cc1N1CCC(N2CCN(S(C)(=O)=O)CC2)CC1 .
A: 5.8
